- TARGET: Set9 (His-Set9, His-Set7/9) (Homo sapiens, UniProt Q8WTS6)
- Sequence (Q8WTS6 1-366): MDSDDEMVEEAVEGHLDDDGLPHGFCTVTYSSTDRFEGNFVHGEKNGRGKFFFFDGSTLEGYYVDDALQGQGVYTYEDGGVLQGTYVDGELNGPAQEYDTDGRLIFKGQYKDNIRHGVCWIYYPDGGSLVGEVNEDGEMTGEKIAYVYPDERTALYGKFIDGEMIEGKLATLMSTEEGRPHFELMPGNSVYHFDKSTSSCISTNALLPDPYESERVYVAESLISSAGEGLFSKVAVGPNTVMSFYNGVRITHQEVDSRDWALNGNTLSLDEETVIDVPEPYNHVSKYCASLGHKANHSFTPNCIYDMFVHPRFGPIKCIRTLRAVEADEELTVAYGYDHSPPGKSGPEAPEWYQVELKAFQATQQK
- ASSAY_REMARKS: Assay for measuring histone methyltransferase activity using peptidyl MCA, inhibitor evaluation with Set9
- Assay type: biochemical
- STUDY_CONDITIONS: Example 14; Ac-ERα(299-302)-MCA; peptidyl MCA fluorescence λex 330 nm/λem 380 nm; right panel of FIG. 28; read-out: IC50 for His-Set7/9
pIC50: −log10 of the molar value.
ENDPOINT: pIC50

Entry CN1C(=O)[C@]23CC4=CC=C[C@H](O)[C@H]4N2C(=O)[C@@]1(CO)SS3 [gliotoxin] , pIC50 reported as < 4.00

----------
- TARGET: UniProt Q9Z148
- Sequence (Q9Z148 whole entry): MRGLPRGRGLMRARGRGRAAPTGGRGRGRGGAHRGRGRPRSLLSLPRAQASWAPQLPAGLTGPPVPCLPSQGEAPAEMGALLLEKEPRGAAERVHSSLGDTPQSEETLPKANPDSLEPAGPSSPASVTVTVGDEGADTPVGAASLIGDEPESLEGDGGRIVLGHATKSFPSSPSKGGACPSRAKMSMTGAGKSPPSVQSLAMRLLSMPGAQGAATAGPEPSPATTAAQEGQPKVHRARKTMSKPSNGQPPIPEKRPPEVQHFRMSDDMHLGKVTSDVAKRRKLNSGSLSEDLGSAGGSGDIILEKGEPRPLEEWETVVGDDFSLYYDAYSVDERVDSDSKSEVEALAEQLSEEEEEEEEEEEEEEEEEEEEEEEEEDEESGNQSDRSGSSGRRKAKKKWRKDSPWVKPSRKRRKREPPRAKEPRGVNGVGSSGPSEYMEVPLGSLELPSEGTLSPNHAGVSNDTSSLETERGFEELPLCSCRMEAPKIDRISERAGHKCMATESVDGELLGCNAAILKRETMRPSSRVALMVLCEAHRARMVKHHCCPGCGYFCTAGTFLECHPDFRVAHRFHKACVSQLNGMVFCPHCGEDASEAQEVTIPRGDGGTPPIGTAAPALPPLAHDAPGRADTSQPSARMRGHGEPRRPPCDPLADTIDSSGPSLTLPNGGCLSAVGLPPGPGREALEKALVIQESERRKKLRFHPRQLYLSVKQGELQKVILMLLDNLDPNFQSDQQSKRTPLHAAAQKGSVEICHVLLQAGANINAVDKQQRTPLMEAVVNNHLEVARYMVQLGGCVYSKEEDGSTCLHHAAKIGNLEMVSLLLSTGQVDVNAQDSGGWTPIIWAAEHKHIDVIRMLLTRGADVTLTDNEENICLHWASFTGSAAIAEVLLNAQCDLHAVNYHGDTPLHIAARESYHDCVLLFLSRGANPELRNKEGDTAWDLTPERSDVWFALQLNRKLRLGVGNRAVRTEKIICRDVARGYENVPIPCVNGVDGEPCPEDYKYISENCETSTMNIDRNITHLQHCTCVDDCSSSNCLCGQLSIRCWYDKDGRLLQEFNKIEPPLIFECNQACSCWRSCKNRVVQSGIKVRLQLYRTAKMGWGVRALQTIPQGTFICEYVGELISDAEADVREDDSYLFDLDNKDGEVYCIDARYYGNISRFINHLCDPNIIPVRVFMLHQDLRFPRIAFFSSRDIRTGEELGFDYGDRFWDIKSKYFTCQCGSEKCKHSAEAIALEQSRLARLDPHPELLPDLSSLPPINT
- ASSAY_REMARKS: Assay for measuring histone methyltransferase activity using peptidyl MCA, inhibitor evaluation with G9a
- Format: biochemical
- STUDY_CONDITIONS: IC50 for G9a, Example 8; Ac-histone H3 (1-9)-MCA; AMC fluorescence λex 390 nm/λem 460 nm; FIG. 18
ENDPOINT: pIC50
By convention, pIC50 is the negative base-10 log of a molar concentration.

Entry CN1C(=O)[C@]23CC4=CC=C[C@H](O)[C@H]4N2C(=O)[C@@]1(CO)SS3 , pIC50 reported as 5.55
